- measured.target: EGFR (Homo sapiens, UniProt P00533)
- Construct: Add 7 ug A431 cell lysate per well (EGFR source); endogenous in cells; host or cells: A431
- Sequence (P00533 25-1210): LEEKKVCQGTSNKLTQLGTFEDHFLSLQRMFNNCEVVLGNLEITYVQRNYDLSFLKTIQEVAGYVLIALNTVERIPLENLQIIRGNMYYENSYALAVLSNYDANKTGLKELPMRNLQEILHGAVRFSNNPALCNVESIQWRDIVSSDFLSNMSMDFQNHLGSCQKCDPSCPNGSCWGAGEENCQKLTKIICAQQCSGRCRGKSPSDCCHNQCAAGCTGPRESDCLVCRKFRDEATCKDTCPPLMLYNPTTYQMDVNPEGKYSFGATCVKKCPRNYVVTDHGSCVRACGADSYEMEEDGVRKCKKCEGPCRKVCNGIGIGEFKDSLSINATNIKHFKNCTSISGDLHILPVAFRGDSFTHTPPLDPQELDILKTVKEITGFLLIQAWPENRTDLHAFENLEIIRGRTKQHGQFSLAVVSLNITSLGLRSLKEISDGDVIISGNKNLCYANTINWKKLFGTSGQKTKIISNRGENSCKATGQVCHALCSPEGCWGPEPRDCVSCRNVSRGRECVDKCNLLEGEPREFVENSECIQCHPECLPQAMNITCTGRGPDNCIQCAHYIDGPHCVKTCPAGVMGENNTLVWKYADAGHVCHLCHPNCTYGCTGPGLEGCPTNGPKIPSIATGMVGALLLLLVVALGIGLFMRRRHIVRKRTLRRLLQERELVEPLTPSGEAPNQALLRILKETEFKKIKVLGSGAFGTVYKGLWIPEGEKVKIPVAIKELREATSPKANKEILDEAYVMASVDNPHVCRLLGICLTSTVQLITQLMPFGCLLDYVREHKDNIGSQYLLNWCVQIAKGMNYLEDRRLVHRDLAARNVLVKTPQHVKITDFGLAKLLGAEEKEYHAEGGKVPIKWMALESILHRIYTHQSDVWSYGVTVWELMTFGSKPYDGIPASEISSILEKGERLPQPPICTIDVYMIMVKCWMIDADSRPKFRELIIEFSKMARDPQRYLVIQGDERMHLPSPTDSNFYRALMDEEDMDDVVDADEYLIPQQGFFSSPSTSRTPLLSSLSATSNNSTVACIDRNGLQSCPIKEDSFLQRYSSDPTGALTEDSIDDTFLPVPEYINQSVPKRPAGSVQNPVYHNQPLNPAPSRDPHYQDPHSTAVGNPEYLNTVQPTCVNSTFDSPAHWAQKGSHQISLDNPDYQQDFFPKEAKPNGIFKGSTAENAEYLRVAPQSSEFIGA
- assay.name: EGFR ELISA assay (in vitro kinase activity, EGFR captured from A431 cell lysate)
- Assay type: biochemical
- Set-up: concentration or dose not given beside the values
Provide the reported Biochem EGFR %Inhibition of each item.
One number for each entry, in %.

Example compounds with recorded Biochem EGFR %Inhibition:
- compound: "CNS(=O)(=O)c1ccc2c(c1)C(=Cc1cccc(Oc3ccccc3)c1)C(=O)N2"
  Biochem EGFR %Inhibition [%]: 45.7
- compound: "O=C1Nc2ccc(I)cc2C1=Cc1ccc(Br)s1"
  Biochem EGFR %Inhibition [%]: 50.9

List the reported Biochem EGFR %Inhibition of each compound below.
1. CC(=O)Oc1ccc(C=C2C(=O)Nc3c(Br)cc(Br)cc32)cc1OC(C)=O
2. O=C1Nc2ccc(S(=O)(=O)Nc3ccc(C(F)(F)F)cc3)cc2C1=Cc1ccc(O)c(O)c1O
3. O=C1Nc2ccc(CCCl)cc2C1=Cc1ccc(Cl)s1
4. CC(C)(C)c1cc(C=C2C(=O)Nc3c(Br)cc(Br)cc32)cc(C(C)(C)C)c1O
5. COc1ccc2ccccc2c1C=C1C(=O)Nc2c(Br)cc(Br)cc21
6. CNS(=O)(=O)c1ccc2c(c1)C(=Cc1ccc3ccccc3c1O)C(=O)N2
7. O=C1Nc2ccc(CCCl)cc2C1=Cc1cc(Cl)cc(Br)c1O

## Result
1. 26.4
2. 91.0
3. 14.7
4. 24.6
5. 10.0
6. 52.0
7. 80.6

List the reported Biochem EGFR %Inhibition of each compound below.
1. C=C(C)C1CC=C(C=C2C(=O)Nc3ccc(Br)c(C)c32)CC1 (stereo not shown)
2. Cc1c(Br)ccc2c1C(=Cc1coc3c(Br)cc(Br)cc3c1=O)C(=O)N2

## Result
1. 31.0
2. 28.2

---

Provide the reported Met Kinase % Inhibition of each item.
- System: MET
- assay.name: MET biochemical kinase assay
- Parameters: species or system human; concentration or dose not given beside the values
Give bare numbers, in %.

Example compounds with recorded Met Kinase % Inhibition:
- compound: "COc1ccc2ccccc2c1C=C1C(=O)Nc2ccc(I)cc21"
  display.unit: "%"
  Met Kinase % Inhibition: 77.2
- compound: "COc1ccc(C=C2C(=O)Nc3c(Br)cc(Br)cc32)c(OC)c1OC"
  display.unit: "%"
  Met Kinase % Inhibition: 39.5
- compound: "O=C1Nc2ccc(S(=O)(=O)Nc3ccc(C(F)(F)F)cc3)cc2C1=Cc1csc([N+](=O)[O-])c1"
  display.unit: "%"
  Met Kinase % Inhibition: 55.1
- compound: "Cc1c(Br)ccc2c1C(=Cc1sc3scc(C)c3c1C)C(=O)N2"
  display.unit: "%"
  Met Kinase % Inhibition: 4.9
- compound: "O=C1Nc2c(Br)cc(Br)cc2C1=Cc1ccc[nH]1"
  display.unit: "%"
  Met Kinase % Inhibition: 9.4

List the reported Met Kinase % Inhibition of each compound below.
1. O=C1Nc2c(Br)cc(Br)cc2C1=Cc1cc(Br)cc(Br)c1O
2. Cc1cc(C=C2C(=O)Nc3c(Br)cc(Br)cc32)cc(C(C)(C)C)c1O
3. COc1ccc(C=C2C(=O)Nc3ccc(S(=O)(=O)N4CCOCC4)cc32)cc1OC
4. Cc1c(Br)ccc2c1C(=Cc1cc(Cl)cc(Cl)c1O)C(=O)N2
5. O=C1Nc2c(Br)cc(Br)cc2C1=Cc1cccs1
6. O=C1Nc2ccc(CCCl)cc2C1=Cc1cc(O)ccc1O

## Result
89.3
85.7
43.1
88.2
54.6
99.2

List the reported Met Kinase % Inhibition of each compound below.
1. CC(C)(C)c1cc(C=C2C(=O)Nc3ccc(S(=O)(=O)Nc4ccc(C(F)(F)F)cc4)cc32)ccc1OCc1ccccc1
2. COc1c(Cl)cc(C=C2C(=O)Nc3ccc(S(=O)(=O)N4CCOCC4)cc32)cc1C(C)(C)C
3. COc1c(C(C)(C)C)cc(C=C2C(=O)Nc3ccc(S(=O)(=O)N4CCOCC4)cc32)cc1C(C)(C)C
4. COc1c(O)ccc(C=C2C(=O)Nc3ccc(S(=O)(=O)Nc4ccc(C(F)(F)F)cc4)cc32)c1[N+](=O)[O-]
5. Cc1c(Br)ccc2c1C(=C1C(=O)Nc3ccc(F)cc31)C(=O)N2
6. COc1ccc(C=C2C(=O)Nc3c(Br)cc(Br)cc32)cc1

## Result
1. -2.1
2. 79.7
3. 65.1
4. 71.8
5. 46.8
6. 70.8

List the reported Met Kinase % Inhibition of each compound below.
1. O=C1Nc2c(Br)cc(Br)cc2C1=Cc1ccc(O)c(O)c1
2. N#Cc1cccc(C=C2C(=O)Nc3c(Br)cc(Br)cc32)c1
3. CCc1ccc(C=C2C(=O)Nc3ccc(I)cc32)s1
4. CC(=O)n1cc(C=C2C(=O)Nc3c(Br)cc(Br)cc32)c2ccccc21
5. Cc1c(Br)ccc2c1C(=Cc1coc3ccc([N+](=O)[O-])cc3c1=O)C(=O)N2
6. COc1c(Cl)cc(C=C2C(=O)Nc3ccc(I)cc32)cc1C(C)(C)C

## Result
84.1
9.7
58.5
42.7
-11.6
69.2

The reported measurements were obtained from patent EP1247803A2.
